# study-system: T1, human insulin receptor (human, UniProt P06213 28-1382)
# T1 construct: whole, on cells; receptor-transfected HEK293 cells in the phosphorylation assay
# protocol-text: competition SPA, [125I]insulin
Bridge positions count the residues as written; N and C are the ends. Ends that are not written are not given here. I, II: the chains in the order shown.
So basically: is IC50 under 0.2 nM? Then met. Not under? Then not met.

binder: IGF-1 A (H8 A9 N21):B(H5D10Y16L17 A22) DPI A-COOH (ligand, not fully specified (C-terminus); ends and bridges not checked) chain 1: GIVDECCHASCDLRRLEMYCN-OH chain 2: GPEHLCGADLVDALYLVCGDAGFY
label: met
--
binder: IGF-1 A:B(H5D10Y16L17) (S═O) DPI (ligand, ends and bridges not checked; also: (S═O) oxidation, residue not given here) chain 1: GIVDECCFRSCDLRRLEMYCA-NH2 chain 2: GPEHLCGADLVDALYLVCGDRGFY-NH2
label: not met
--
binder: IGF-1 A:B (ligand, human, not fully specified (C-terminus); ends and bridges not checked; also: C-terminal amide, chain not given here, domain: B chain; two-chain form of IGF-1) chain 1: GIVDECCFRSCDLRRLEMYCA chain 2: GPETLCGAELVDALQFVCGDRGFYFNKPT
label: not met
--
binder: IGF-1 A:B (H5D10Y16L17) DPI (ligand, cysteine pairing not given here) chain 1: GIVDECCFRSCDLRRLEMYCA-NH2 chain 2: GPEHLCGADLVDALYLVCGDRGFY-NH2
label: met
--
binder: IGF-1 A:IGF-1 B(1-8)-In (9-17)-IGF-1 B(18-30) (ligand, disulfide I:6-I:11, I:20-II:18, I:7-II:6 (inferred); not fully specified, chimeric B chain) chain 1: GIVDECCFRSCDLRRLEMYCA-NH2 chain 2: GPETLCGSHLVEALYLVCGDRGFYFNKPT-NH2
label: not met
